test: In vivo pharmacokinetics, IV and PO; details: female, C57BL6, plasma, oral; P.O. 60 mg/kg vs I.V. 1 mg/kg, mouse
property: bioavailability (%)
Give your result in % as a bare value.

So, COc1ccc2c(Nc3ccc(S(=N)(=O)NCC(C)O)cc3)ccnc2c1 (stereo not shown) [VIR3] ? Its bioavailability was 5.7

* * *

Target: Enpp1 (Homo sapiens, UniProt P22413)
Sequence (P22413 1-925): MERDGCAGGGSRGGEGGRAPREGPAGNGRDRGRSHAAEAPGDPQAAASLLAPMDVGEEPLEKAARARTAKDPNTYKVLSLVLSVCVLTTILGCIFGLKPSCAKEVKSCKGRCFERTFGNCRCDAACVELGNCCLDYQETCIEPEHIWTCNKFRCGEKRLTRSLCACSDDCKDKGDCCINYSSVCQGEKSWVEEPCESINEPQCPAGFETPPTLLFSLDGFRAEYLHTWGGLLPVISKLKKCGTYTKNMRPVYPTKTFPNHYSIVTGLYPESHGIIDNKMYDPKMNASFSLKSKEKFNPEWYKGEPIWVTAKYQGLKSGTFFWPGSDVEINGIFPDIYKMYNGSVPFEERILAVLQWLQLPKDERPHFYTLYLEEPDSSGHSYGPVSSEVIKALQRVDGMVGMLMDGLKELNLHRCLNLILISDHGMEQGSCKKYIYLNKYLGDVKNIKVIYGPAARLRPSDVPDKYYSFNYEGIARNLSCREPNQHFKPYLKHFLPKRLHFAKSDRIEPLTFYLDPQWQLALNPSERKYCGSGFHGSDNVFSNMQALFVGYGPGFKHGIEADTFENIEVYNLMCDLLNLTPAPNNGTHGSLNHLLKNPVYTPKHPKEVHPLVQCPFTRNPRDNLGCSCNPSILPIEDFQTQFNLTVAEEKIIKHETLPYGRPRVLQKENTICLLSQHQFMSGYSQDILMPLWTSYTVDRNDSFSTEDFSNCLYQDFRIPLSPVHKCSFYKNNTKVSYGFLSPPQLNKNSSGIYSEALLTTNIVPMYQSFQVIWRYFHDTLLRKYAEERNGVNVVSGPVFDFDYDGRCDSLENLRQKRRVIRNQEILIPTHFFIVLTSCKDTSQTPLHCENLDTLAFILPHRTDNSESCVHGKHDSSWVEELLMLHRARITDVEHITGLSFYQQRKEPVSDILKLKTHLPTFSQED
Test: Enzymatic inhibition of recombinant ENPP1 cGAMP hydrolysis (AMP-Glo)
Settings: recombinant ENPP1 1.5 nM, 20 uM 2'3'-cGAMP; value is the lower threshold of the assay
property: IC50

So, COc1ccc2c(Nc3ccc(S(=N)(=O)NCC(C)O)cc3)ccnc2c1 (stereo not shown) ? Its IC50 was < 0.75 nM
